- Tested on: SARS2
- Type: cell-based, SARS-CoV-2
- conditions: Average of Exp 1 (SMW491) and Exp 2 (SMW492), n=4, 50 uM
Each item that follows carries a reported Infection Data, Average, Mean percentage infection relative to DMSO control.
Entry rule: numbers only, all in %.

// recorded Infection Data, Average, Mean percentage infection relative to DMSO control for COc1ccc(CNCCc2ccccc2F)c(OCC(O)CN2CCN(C)CC2)c1 (stereo not shown) [SILCS46] : 0.84

The molecule COc1ccc(CNCCc2ccccc2F)c(OCC(O)CN2CCN(C)CC2)c1 (stereo not shown) [SILCS45] showed Infection Data, Average, Mean percentage infection relative to DMSO control equal to 3.57

Infection Data, Average, Mean percentage infection relative to DMSO control for COc1ccc(C2NC(=O)NC(C)=C2C(=O)NCc2ccccc2)cc1OC (stereo not shown) is 160.04

Infection Data, Average, Mean percentage infection relative to DMSO control in this record for COc1ccc(CNCCc2ccccc2F)c(OCC(O)CN2CCCC2)c1 (racemic) : −13.34
